Taken from patent US20080112961A1.

// values below are reported fold increase vs WT
measured_on: T1, FcγRIIIA (form not stated) (UniProt P08637 17-208, limits assumed)
T1 construct: also called FcγRIIIA (ELISA)
assay_procedure: ELISA
Record the value in x, omitting the unit from your answer.

# binder, fold increase vs WT [x]
measured = [
    ("ch4-4-20 F275I, K334N, V348M (antibody) heavy: ASTKGPSVFPLAPSSKSTSGGTAALGCLVKDYFPEPVTVSWNSGALTSGVHTFPAVLQSSGLYSLSSVVTVPSSSLGTQTYICNVNHKPSNTKVDKKVEPKSCDKTHTCPPCPAPELLGGPSVFLFPPKPKDTLMISRTPEVTCVVVDVSHEDPEVKINWYVDGVEVHNAKTKPREEQYNSTYRVVSVLTVLHQDWLNGKEYKCKVSNKALPAPIENTISKAKGQPREPQMYTLPPSRDELTKNQVSLTCLVKGFYPSDIAVEWESNGQPENNYKTTPPVLDSDGSFFLYSKLTVDKSRWQQGNVFSCSVMHEALHNHYTQKSLSLSPGK", 0.5),
    ("ch4-4-20 K334E, T359N, T366S, Q386R (antibody) heavy: ASTKGPSVFPLAPSSKSTSGGTAALGCLVKDYFPEPVTVSWNSGALTSGVHTFPAVLQSSGLYSLSSVVTVPSSSLGTQTYICNVNHKPSNTKVDKKVEPKSCDKTHTCPPCPAPELLGGPSVFLFPPKPKDTLMISRTPEVTCVVVDVSHEDPEVKFNWYVDGVEVHNAKTKPREEQYNSTYRVVSVLTVLHQDWLNGKEYKCKVSNKALPAPIEETISKAKGQPREPQVYTLPPSRDELNKNQVSLSCLVKGFYPSDIAVEWESNGRPENNYKTTPPVLDSDGSFFLYSKLTVDKSRWQQGNVFSCSVMHEALHNHYTQKSLSLSPGK", 1),
    ("ch4-4-20 K290T, N390I, P396L (antibody) heavy: ASTKGPSVFPLAPSSKSTSGGTAALGCLVKDYFPEPVTVSWNSGALTSGVHTFPAVLQSSGLYSLSSVVTVPSSSLGTQTYICNVNHKPSNTKVDKKVEPKSCDKTHTCPPCPAPELLGGPSVFLFPPKPKDTLMISRTPEVTCVVVDVSHEDPEVKFNWYVDGVEVHNAKTTPREEQYNSTYRVVSVLTVLHQDWLNGKEYKCKVSNKALPAPIEKTISKAKGQPREPQVYTLPPSRDELTKNQVSLTCLVKGFYPSDIAVEWESNGQPENIYKTTPLVLDSDGSFFLYSKLTVDKSRWQQGNVFSCSVMHEALHNHYTQKSLSLSPGK", 2.8),
    ("ch4-4-20 D280E, S354F, A431D, L441I (antibody) heavy: ASTKGPSVFPLAPSSKSTSGGTAALGCLVKDYFPEPVTVSWNSGALTSGVHTFPAVLQSSGLYSLSSVVTVPSSSLGTQTYICNVNHKPSNTKVDKKVEPKSCDKTHTCPPCPAPELLGGPSVFLFPPKPKDTLMISRTPEVTCVVVDVSHEDPEVKFNWYVEGVEVHNAKTKPREEQYNSTYRVVSVLTVLHQDWLNGKEYKCKVSNKALPAPIEKTISKAKGQPREPQVYTLPPFRDELTKNQVSLTCLVKGFYPSDIAVEWESNGQPENNYKTTPPVLDSDGSFFLYSKLTVDKSRWQQGNVFSCSVMHEDLHNHYTQKSISLSPGK", 3),
    ("ch4-4-20 P343S, P353L, S375I, S383N (antibody) heavy: ASTKGPSVFPLAPSSKSTSGGTAALGCLVKDYFPEPVTVSWNSGALTSGVHTFPAVLQSSGLYSLSSVVTVPSSSLGTQTYICNVNHKPSNTKVDKKVEPKSCDKTHTCPPCPAPELLGGPSVFLFPPKPKDTLMISRTPEVTCVVVDVSHEDPEVKFNWYVDGVEVHNAKTKPREEQYNSTYRVVSVLTVLHQDWLNGKEYKCKVSNKALPAPIEKTISKAKGQSREPQVYTLPLSRDELTKNQVSLTCLVKGFYPIDIAVEWENNGQPENNYKTTPPVLDSDGSFFLYSKLTVDKSRWQQGNVFSCSVMHEALHNHYTQKSLSLSPGK", 0.5),
    ("ch4-4-20 V282E, V369I, L406F (antibody) heavy: ASTKGPSVFPLAPSSKSTSGGTAALGCLVKDYFPEPVTVSWNSGALTSGVHTFPAVLQSSGLYSLSSVVTVPSSSLGTQTYICNVNHKPSNTKVDKKVEPKSCDKTHTCPPCPAPELLGGPSVFLFPPKPKDTLMISRTPEVTCVVVDVSHEDPEVKFNWYVDGEEVHNAKTKPREEQYNSTYRVVSVLTVLHQDWLNGKEYKCKVSNKALPAPIEKTISKAKGQPREPQVYTLPPSRDELTKNQVSLTCLIKGFYPSDIAVEWESNGQPENNYKTTPPVLDSDGSFFFYSKLTVDKSRWQQGNVFSCSVMHEALHNHYTQKSLSLSPGK", 0.5),
    ("ch4-4-20 V348M, K334N, F275I, Y202M, K147T (antibody) ASTKGPSVFPLAPSSKSTSGGTAALGCLVTDYFPEPVTVSWNSGALTSGVHTFPAVLQSSGLYSLSSVVTVPSSSLGTQTYICNMNHKPSNTKVDKKVEPKSCDKTHTCPPCPAPELLGGPSVFLFPPKPKDTLMISRTPEVTCVVVDVSHEDPEVKINWYVDGVEVHNAKTKPREEQYNSTYRVVSVLTVLHQDWLNGKEYKCKVSNKALPAPIENTISKAKGQPREPQMYTLPPSRDELTKNQVSLTCLVKGFYPSDIAVEWESNGQPENNYKTTPPVLDSDGSFFLYSKLTVDKSRWQQGNVFSCSVMHEALHNHYTQKSLSLSPGK", 0.5),
]

Field: next binder
Answer with the recorded fold increase vs WT for the binder listed here: ch4-4-20 T256S, V305I, K334E, N390S (antibody) heavy: ASTKGPSVFPLAPSSKSTSGGTAALGCLVKDYFPEPVTVSWNSGALTSGVHTFPAVLQSSGLYSLSSVVTVPSSSLGTQTYICNVNHKPSNTKVDKKVEPKSCDKTHTCPPCPAPELLGGPSVFLFPPKPKDTLMISRSPEVTCVVVDVSHEDPEVKFNWYVDGVEVHNAKTKPREEQYNSTYRVVSILTVLHQDWLNGKEYKCKVSNKALPAPIEETISKAKGQPREPQVYTLPPSRDELTKNQVSLTCLVKGFYPSDIAVEWESNGQPENSYKTTPPVLDSDGSFFLYSKLTVDKSRWQQGNVFSCSVMHEALHNHYTQKSLSLSPGK
1.5
